Tested target: T1, LptAm (E. coli), monomeric truncated variant of LptA (E. coli (ATCC 25922))
T1 chain: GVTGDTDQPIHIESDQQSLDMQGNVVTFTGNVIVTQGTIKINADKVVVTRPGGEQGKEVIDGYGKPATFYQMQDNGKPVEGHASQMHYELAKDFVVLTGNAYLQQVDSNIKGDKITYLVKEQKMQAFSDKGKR
Test protocol: FP
Bridges are numbered along the chain shown (N, C = ends). Where no end group is shown, it is not given here.
Quantity name: IC50 (nM)

[[record]]
binder = "KKPVPIIYCNRRTGKCQRM (disulfide 9-16 (inferred)) [peptide 1]"
output_unit = "nM"
quantitative_readout = 6.6

